Kd values, listed per item
# Subject of test: Placenta growth factor (Homo sapiens, UniProt P49763)
# Assay notes: Binding affinity to human PlGF-1
# Details: read-out: Kd
Bridge positions count the residues as written; N and C are the ends. Peptide text beside a SMILES is read from it. * marks the point of attachment. X1 = O=C(COCC(=O)*)Nc1ccc(CCC(=O)N2CCC2=O)cc1
Write the value in nM as a bare number.

Please review the following examples before continuing.
- CSCC[C@H](NC(=O)[C@@H](NC(=O)[C@H](CCCCN)NC(=O)[C@@H]1CSSC[C@H](NC(=O)[C@@H](NC(=O)[C@H](CC(=O)O)NC(=O)[C@H](Cc2ccccc2)NC(=O)COCC(=O)Nc2ccc(CCC(=O)N3CCC3=O)cc2)C(C)C)C(=O)N[C@@H](CCCCN)C(=O)N[C@@H](Cc2c[nH]c3ccccc23)C(=O)N[C@@H](C(C)C)C(=O)N[C@@H]([C@@H](C)O)C(=O)N[C@@H](CC(C)C)C(=O)N2CCC[C@H]2C(=O)N[C@@H](Cc2cnc[nH]2)C(=O)N1)C(C)C)C(N)=O (X1-FDVCKWVTLPHCKVM-NH2; disulfide 4-12): 200
- CSCC[C@H](NC(=O)[C@@H](NC(=O)[C@H](CCCCNC(=O)COCC(=O)Nc1ccc(CCC(=O)N2CCC2=O)cc1)NC(=O)[C@@H]1CSSC[C@H](NC(=O)[C@@H](NC(=O)[C@H](CC(=O)O)NC(=O)[C@H](Cc2ccccc2)NC(C)=O)C(C)C)C(=O)N[C@@H](CC(N)=O)C(=O)N[C@@H](Cc2c[nH]c3ccccc23)C(=O)N[C@@H](C(C)C)C(=O)N[C@@H]([C@@H](C)O)C(=O)N[C@@H](CC(C)C)C(=O)N2CCC[C@H]2C(=O)N[C@@H](Cc2cnc[nH]2)C(=O)N1)C(C)C)C(N)=O (Ac-FDVCNWVTLPHCK(X1)VM-NH2; disulfide 4-12): 4

Continue with the next compound.
Value of Kd reported for the compound CC[C@H](C)[C@@H]1NC(=O)[C@H](Cc2ccc(O)cc2)NC(=O)[C@H](Cc2cnc[nH]2)NC(=O)[C@@H](NC(=O)[C@@H](NC(=O)[C@H](CCC(=O)O)NC(=O)[C@H](Cc2ccccc2)NC(C)=O)C(C)C)CSSC[C@@H](C(=O)N[C@H](C(=O)N[C@@H](CCCN=C(N)N)C(=O)N[C@@H](Cc2ccc(O)cc2)C(N)=O)[C@@H](C)O)NC(=O)[C@H](Cc2cnc[nH]2)NC(=O)[C@@H]2CCCN2C(=O)[C@H](CC(C)C)NC(=O)[C@H](CCCCNC(=O)COCC(=O)Nc2ccc(CCC(=O)N3CCC3=O)cc2)NC1=O is 0.3

---

Form field: Kd (one value per entry).
# Subject of test: Placenta growth factor (Homo sapiens)
# Sequence (P49763 whole entry): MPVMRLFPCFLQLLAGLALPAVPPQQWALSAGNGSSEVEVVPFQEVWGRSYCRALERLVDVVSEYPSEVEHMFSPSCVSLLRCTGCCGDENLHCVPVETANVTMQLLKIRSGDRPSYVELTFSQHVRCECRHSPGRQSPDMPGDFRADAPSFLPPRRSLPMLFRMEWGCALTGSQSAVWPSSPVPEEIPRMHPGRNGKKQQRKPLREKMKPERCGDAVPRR
# Assay notes: Binding affinity to human PlGF-1
# Details: read-out: Kd
Bridge positions count the residues as written; N and C are the ends. Peptide text beside a SMILES is read from it. * marks the point of attachment. X1 = O=C(COCC(=O)*)Nc1ccc(CCC(=O)N2CCC2=O)cc1
Quick reminder: number only, in nM, skip the unit.

In plain terms, CSCC[C@H](NC(=O)[C@@H](NC(=O)[C@H](CCCCN)NC(=O)[C@@H]1CSSC[C@H](NC(=O)[C@@H](NC(=O)[C@H](CC(=O)O)NC(=O)[C@H](Cc2ccccc2)NC(C)=O)C(C)C)C(=O)N[C@@H](CCCCN)C(=O)N[C@@H](Cc2c[nH]c3ccccc23)C(=O)N[C@@H](C(C)C)C(=O)N[C@@H]([C@@H](C)O)C(=O)N[C@@H](CC(C)C)C(=O)N2CCC[C@H]2C(=O)N[C@@H](Cc2cnc[nH]2)C(=O)N1)C(C)C)C(N)=O (Ac-FDVCKWVTLPHCKVM-NH2; disulfide 4-12) has a documented Kd of 1000

The recorded Kd for entry CSCC[C@H](NC(=O)[C@@H](NC(=O)[C@H](CCCCNC(C)=O)NC(=O)[C@@H]1CSSC[C@H](NC(=O)[C@@H](NC(=O)[C@H](CC(=O)O)NC(=O)[C@H](Cc2ccccc2)NC(C)=O)C(C)C)C(=O)N[C@@H](CC(N)=O)C(=O)N[C@@H](Cc2c[nH]c3ccccc23)C(=O)N[C@@H](C(C)C)C(=O)N[C@@H](CCCCNC(=O)COCC(=O)Nc2ccc(CCC(=O)N3CCC3=O)cc2)C(=O)N[C@@H](CC(C)C)C(=O)N2CCC[C@H]2C(=O)N[C@@H](Cc2cnc[nH]2)C(=O)N1)C(C)C)C(N)=O (Ac-FDVCNWVK(X1)LPHCK(Ac)VM-NH2; disulfide 4-12) equals 9
